Reported values of GI50 for individual entries
- System: SK-MEL-28 melanoma
- Experiment description: NCI tumour cell line growth inhibition, 48 h

[
  {
    "Compound": "O=[N+]([O-])c1ccc(Oc2cccnc2)c([N+](=O)[O-])c1",
    "GI50": "9.49 µM"
  },
  {
    "Compound": "Nc1nn(C(=O)Nc2ccc(Cc3ccccc3)cc2)c2ccc(Cl)cc12",
    "GI50": "7.91 µM"
  },
  {
    "Compound": "Oc1c(Cl)cc(C(c2cc(Cl)c(O)c(Cl)c2)C(c2cc(Cl)c(O)c(Cl)c2)c2cc(Cl)c(O)c(Cl)c2)cc1Cl",
    "GI50": "5.27 µM"
  },
  {
    "Compound": "COC(=O)c1c2c(c[n+]([O-])c1C)C(=O)C(NCc1ccccc1)=CC2=O",
    "GI50": "1.6 µM"
  },
  {
    "Compound": "COc1c(Nc2ncc(Cl)c(N[C@@H]3[C@H]4C=CC(C4)[C@@H]3C(N)=O)n2)ccc2c1CC[C@@H](N1CCOCC1)CC2",
    "GI50": "3.25 µM"
  },
  {
    "Compound": "COc1ccc(Nc2nc(NCc3ccccc3)c3ccccc3n2)cc1",
    "GI50": "2.03 µM"
  },
  {
    "Compound": "CCS(=O)(=O)c1ccc(OC)c(Nc2ncc(-c3cccc(-c4ccccc4F)c3)o2)c1",
    "GI50": "> 25 µM"
  },
  {
    "Compound": "C=CC[Se]C(=O)c1ccccc1OC(C)=O",
    "GI50": "1.85 µM"
  },
  {
    "Compound": "COC(=O)C1=C(C(=O)Nc2cccnc2)C2OC1(C(Cc1ccccc1)Oc1ccccc1)C1OC21 (centres undefined)",
    "GI50": "1.83 µM"
  },
  {
    "Compound": "CCCCC(SC(=S)N(CC)CC)C(=O)Nc1nc(CC(=O)OCC)cs1 (centres undefined)",
    "GI50": "47.3 µM"
  },
  {
    "Compound": "CN(C)c1cc2c(cc1Sc1nc3c(N)nccc3n1CCNCC(C)(C)C)OCO2",
    "GI50": "0.621 µM"
  },
  {
    "Compound": "O=C(Nc1cccnc1)c1cccs1",
    "GI50": "0.677 µM"
  },
  {
    "Compound": "Clc1ccc(N/N=C/c2ccccn2)nc1",
    "GI50": "0.598 µM"
  },
  {
    "Compound": "CCCCN(CCCC)c1cc(C(=O)CCCCCN)c2ccccc2n1",
    "GI50": "1.91 µM"
  }
]

###

- System: OVCAR-3 ovarian
- Experiment description: NCI tumour cell line growth inhibition, 48 h; in the data active = GI50 below about 0.43 µM; inactive = the rest
Classes used: class 1 = active, class 0 = inactive

[
  {
    "Molecule": "Cc1cc(N2CCOCC2)nc(N(CCCNc2ccnc3cc(Cl)ccc23)Cc2ccc3c(c2)OCO3)n1",
    "Class assignment": "class 1"
  },
  {
    "Molecule": "O=C1OCC2=C1C(c1cccc([N+](=O)[O-])c1)c1cc3c(cc1N2CCO)CCC3 (stereo unspecified)",
    "Class assignment": "class 1"
  },
  {
    "Molecule": "Cc1nc(NC(=O)COc2cccc(/C=C3\\COc4ccccc4C3=O)c2)sc1C",
    "Class assignment": "class 0"
  },
  {
    "Molecule": "O=C(Nc1cccc(-n2cc(-c3ccncc3)c(-c3cc(O)cc(Cl)c3)n2)c1)Nc1ccc(Cl)c(Cl)c1",
    "Class assignment": "class 0"
  },
  {
    "Molecule": "NC(=O)c1ncn(C2OC(CO)C(O)C2O)n1 (stereo unspecified)",
    "Class assignment": "class 0"
  },
  {
    "Molecule": "NC(=O)Cc1ccccc1Oc1nccc(-c2c(-c3ccc(F)cc3)ncn2C2CCNCC2)n1",
    "Class assignment": "class 0"
  },
  {
    "Molecule": "O=C(/C=C/c1ccccc1O)c1ccccc1",
    "Class assignment": "class 0"
  },
  {
    "Molecule": "O=C(/C=C\\c1cccc([N+](=O)[O-])c1)c1ccccc1",
    "Class assignment": "class 0"
  },
  {
    "Molecule": "Clc1ccc(N/N=C/c2ccccn2)nc1",
    "Class assignment": "class 1"
  },
  {
    "Molecule": "COC(=O)C1=C(C(=O)Nc2cccnc2)C2OC1(C(Cc1ccccc1)Oc1ccccc1)C1OC21 (stereo unspecified)",
    "Class assignment": "class 0"
  },
  {
    "Molecule": "COc1cc2c3c(n(CCCN=[N+]=[N-])c(=O)c2cc1OC)-c1ccc(N)cc1C3=O",
    "Class assignment": "class 1"
  }
]

###

Reported values of TGI for individual entries
- Test system: SNB-19 CNS
- Experiment description: NCI tumour cell line growth inhibition, 48 h

[
  {
    "Compound": "CN(C)S(=O)(=O)n1ccnc1",
    "TGI": "> 100 µM"
  },
  {
    "Compound": "COc1cccc(/C=N/[N-]C(N)=O)c1[O-].[Cu+2].[OH3+].c1cnc2c(c1)ccc1cccnc12",
    "TGI": "34.2 µM"
  },
  {
    "Compound": "C=CC1(c2ccc(Cl)c(Cl)c2)OCCO1",
    "TGI": "> 100 µM"
  },
  {
    "Compound": "O=C(O)c1ccc([N+](=O)[O-])c(P(=O)(O)O)c1",
    "TGI": "> 100 µM"
  },
  {
    "Compound": "O=C(Nc1cccnc1)c1cccs1",
    "TGI": "> 100 µM"
  },
  {
    "Compound": "CCOP(=O)(OCC)/C(=C/c1ccccc1)CC(C)=O",
    "TGI": "> 100 µM"
  },
  {
    "Compound": "CCOC(=O)/C(=C/c1cc(OC)ccc1OC)CC(=O)O",
    "TGI": "> 100 µM"
  },
  {
    "Compound": "COc1ccc(C2Cc3cc(OC)c(OC)c(OC)c3C2=O)cc1 (configuration not stated)",
    "TGI": "> 100 µM"
  },
  {
    "Compound": "CCC1(O)C(=O)OCc2c1cc1n(c2=O)Cc2c-1nc1ccccc1c2OC (configuration not stated)",
    "TGI": "> 29.2 µM"
  },
  {
    "Compound": "NC(N)=NS(=O)(=O)c1ccc(Nc2c3ccccc3nc3ccc(C(=O)Nc4ccc(S(N)(=O)=O)cc4)cc23)cc1",
    "TGI": "> 100 µM"
  },
  {
    "Compound": "COc1ccc(Cc2nc3cc(Cl)ccc3o2)cc1",
    "TGI": "> 100 µM"
  },
  {
    "Compound": "O=C1OCC2=C1C(c1cccc([N+](=O)[O-])c1)c1cc3c(cc1N2CCO)CCC3 (configuration not stated)",
    "TGI": "> 50 µM"
  },
  {
    "Compound": "CCC[CH2][Sn]([CH2]CCC)([O]C(=O)c1cc(OC)c(OC)c(OC)c1)[O]C(=O)c1cc(OC)c(OC)c(OC)c1",
    "TGI": "1.54 µM"
  },
  {
    "Compound": "NNC(=O)CC(=O)Nc1ccc(C(=O)O)cc1",
    "TGI": "> 100 µM"
  },
  {
    "Compound": "C[C@@]12CCC[C@@](C)(C(=O)O)C1CC[C@]13C=C(CO)[C@](O)(CCC12)C3 (some centres not stated)",
    "TGI": "> 100 µM"
  },
  {
    "Compound": "OCC1C(O)C(O)[C@@H]2SCCN12 (some centres not stated)",
    "TGI": "> 100 µM"
  },
  {
    "Compound": "COC(=O)c1c(O)ccc2c1c1c(n2Cc2ccccn2)C(=O)c2ccccc2C1",
    "TGI": "> 100 µM"
  },
  {
    "Compound": "COC1OC(COCc2ccc(Cl)cc2)C(OCc2ccc(Cl)cc2)C1O (configuration not stated)",
    "TGI": "32.4 µM"
  },
  {
    "Compound": "Cc1cc(C)nc(NC(=S)Nc2cccc(Cl)c2)c1",
    "TGI": "> 100 µM"
  },
  {
    "Compound": "OCC1OC(n2ccc3cnccc32)CC1O (configuration not stated)",
    "TGI": "> 100 µM"
  },
  {
    "Compound": "C=C1C(=O)O[C@H]2[C@H]1CC/C(COC(=O)NCc1c[nH]c3ccc(OC)cc13)=C\\CC[C@@]1(C)O[C@@H]21",
    "TGI": "18.4 µM"
  },
  {
    "Compound": "C[C@H](Nc1ccc(C#N)n(C)c1=O)c1cc2cc(Cl)ccc2[nH]c1=O",
    "TGI": "> 100 µM"
  }
]
